B1: YPEL3 (parent)
chain: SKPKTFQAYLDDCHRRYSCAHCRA

- Variants of: B1
- test description: protein stability index of a GFP-peptide fusion (GPS, HEK-293T) (PSI 1-6); higher = more stable;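 also: lentivirally expressed fusions sorted by FACS into six bins by GFP to DsRed ratio, PSI derived from sequencing read proportions per bin multiplied by bin number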
- assay context: c terminus: a fixed tail appended
Note to self: values exactly at 2 are Met. So protein stability index at or above 2 is Met, below is Not met.

Answered cases to consult:
1. K2W    Met
2. H14K    Met
3. K4H    Met
4. C13N    Met
5. H21A    Met
6. D11N    Met
7. T5R    Met
8. S1Q    Met
9. R15H    Met
10. L10P    Met

Exam item: Can "A24E" be said to have protein stability index at or above 2?
Marked response: Not met

Exam item: Can "S18Q" be said to have protein stability index at or above 2?
Marked response: Not met

Exam item: Can "C19M" be said to have protein stability index at or above 2?
Marked response: Not met

Exam item: Can "R16N" be said to have protein stability index at or above 2?
Marked response: Not met
